Provenance of the data: PubChem BioAssay AID1159580

# MEASUREMENT_NOTES: chemical genetic growth profiling, strain panel (AID 1159580);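 also: tested at 20 µM; growth read once vehicle control cultures reached saturation at 30 °C; 1 = growth at the plate median or of vehicle wells; lower values mean less growth of the strain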
# CONDITION_CONTEXT: S. cerevisiae deletion strains, growth OD, locus YLR113W, strain HOG1, active compounds read low
The campaign covered roughly 5,500 compounds. About 2,000 (36%) were called active. Roughly 18% stayed inconclusive and do not appear here. The list shows a part of the results.
Mark label 1 only when normalized growth stays strictly below 0.9. Values equal to the cut-off are label 0.

MOLECULE: S=c1[nH]nc(Nc2ccc(I)cc2)s1
GROUP: label 1

MOLECULE: O=C(O)c1ccccc1-c1c2cc(I)c(=O)c(I)c-2oc2c(I)c(O)c(I)cc12
GROUP: label 0

MOLECULE: C#CCCCCCCCCCCCC(O)CC(O)COC(C)=O (stereo not given)
GROUP: label 0

MOLECULE: CCCCCCOc1ccccc1C(N)=O
GROUP: label 1

Q: Please determine if `CCCCN(CCCC)CCCOC(=O)c1ccc(N)cc1` is below 0.9 in terms of normalized growth.
Result: label 0

Q: Also need `Cc1onc(-c2c(Cl)cccc2Cl)c1C(=O)NC(C)(C)CC(C)(C)C` , thanks.
Result: label 0

Q: Also need `CC1(C)OC(=O)C(=Cc2cccn2-c2ccc(OC(F)(F)F)cc2)C(=O)O1` , thanks.
Result: label 1

Q: Also need COc1ccc2c(c1OC)C(=O)OC2[C@H]1c2c(cc3c(c2OC)OCO3)CCN1C (stereo not given in full) , thanks.
Result: label 0

Q: Also need `CCCOc1ccc(C(=O)OCCN(CC)CC)cc1N` , thanks.
Result: label 0

Q: Also need `Cc1onc(-c2c(F)cccc2Cl)c1C(=O)ON=C1C2CC3CC(C2)CC1C3` , thanks.
Result: label 1

Q: Also need `CCCCC(=O)Oc1ccccc1C(=O)O` , thanks.
Result: label 0

Q: Also need `CCCCOC(=O)c1ccc(N)cc1` , thanks.
Result: label 0

Q: Also need `O=C(Cn1ccnc1[N+](=O)[O-])NCCO` , thanks.
Result: label 0

Q: Also need `CC(C)(C)c1ccc(C(=O)Nc2ccc(C(F)(F)F)cc2)s1` , thanks.
Result: label 1

Q: Also need `N#CC(C#N)=Cc1ccc(-c2ccccc2C(F)(F)F)o1` , thanks.
Result: label 1

Q: Also need `COc1c(OC)c2occc2c2oc(=O)ccc12` , thanks.
Result: label 0

Q: Also need `COc1ccc([C@H]2Oc3cc(OC)cc(OC)c3C[C@H]2O)cc1` , thanks.
Result: label 0

Q: Also need O=C1CC2OCC=C3CN4CC[C@]56c7ccccc7N1C5[C@H]2[C@H]3CC46 (stereo not given in full) , thanks.
Result: label 0

###

# MEASUREMENT_NOTES: chemical genetic growth profiling, strain panel (AID 1159580);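 also: tested at 20 µM; growth read once vehicle control cultures reached saturation at 30 °C; 1 = growth at the plate median or of vehicle wells; lower values mean less growth of the strain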
# CONDITION_CONTEXT: S. cerevisiae deletion strains, growth OD, locus YNL322C, strain KRE1 (second series), active compounds read low
Screen size: about 5,500 compounds; about 2,000 (36%) were called active. Not shown: some 18% with an inconclusive outcome. This is one part of the list.
METRIC: normalized growth

// worked examples, normalized growth included
MOLECULE: COc1ccc(-c2coc3cc(OC)cc(OC)c3c2=O)cc1
normalized growth: 0.994 (inactive)
//
MOLECULE: CC(C)[C@@H]1CC[C@@H](C)C[C@H]1O
normalized growth: 0.993 (inactive)
//
MOLECULE: Nc1ccc(N=Nc2ccccc2)c(N)n1
normalized growth: 1.03 (inactive)
//
MOLECULE: COC(=O)C(C)c1ccc(C(=O)c2cccs2)cc1 (stereo not drawn)
normalized growth: 1.01 (inactive)
//
MOLECULE: CC(=O)N[C@@H](CS)C(=O)O
normalized growth: 0.999 (inactive)

Working through the 2 molecules below one at a time, give normalized growth for each.
1. CC1=CC2C(CC1=O)C(C)=CCC2C(C)C (stereo not drawn)
2. COc1cc2occ(-c3ccccc3)c(=O)c2c(OC)c1C

Result:
1: 1.01 (inactive); 2: 0.991 (inactive)
